- EXPERIMENTAL SYSTEM: Neu5Ac(a2-6)Gal(b1-4)GlcNAc(b1-2)Man(a1-3)[Neu5Ac(a2-6)Gal(b1-4)GlcNAc(b1-2)Man(a1-6)]Man(b1-4)GlcNAc(b1-4)GlcNAc
- ASSAY TEXT: glycan array binding signal (z-score within array); higher = stronger binding
- SETUP CONDITIONS: glycan notation: IUPAC condensed, linker removed
The sample as a whole holds a higher share of the strongest signals than the screen did.

{"BINDER": "DCIR1 (Mus musculus), Q9QZ15 (protein) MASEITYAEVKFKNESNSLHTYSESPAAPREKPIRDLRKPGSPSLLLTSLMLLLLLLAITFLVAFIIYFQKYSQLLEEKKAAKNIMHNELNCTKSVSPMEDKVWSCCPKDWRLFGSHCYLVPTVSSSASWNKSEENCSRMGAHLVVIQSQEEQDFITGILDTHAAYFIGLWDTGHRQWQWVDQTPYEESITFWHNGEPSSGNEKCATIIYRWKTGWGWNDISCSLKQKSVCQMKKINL", "glycan array binding signal (z-score)": -0.079}
{"BINDER": "his-Lectin-24A (Drosophila melanogaster) (protein) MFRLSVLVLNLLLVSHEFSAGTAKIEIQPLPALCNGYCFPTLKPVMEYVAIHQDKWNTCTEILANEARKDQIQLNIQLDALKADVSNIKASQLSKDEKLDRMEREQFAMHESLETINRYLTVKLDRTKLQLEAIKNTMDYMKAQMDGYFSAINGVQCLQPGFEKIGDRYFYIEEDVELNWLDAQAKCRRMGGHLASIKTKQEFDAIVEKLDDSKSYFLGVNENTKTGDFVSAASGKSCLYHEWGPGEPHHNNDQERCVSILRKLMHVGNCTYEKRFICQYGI", "glycan array binding signal (z-score)": 0.078}
{"BINDER": "DCL-1 (Homo sapiens), Q8IX05 (protein) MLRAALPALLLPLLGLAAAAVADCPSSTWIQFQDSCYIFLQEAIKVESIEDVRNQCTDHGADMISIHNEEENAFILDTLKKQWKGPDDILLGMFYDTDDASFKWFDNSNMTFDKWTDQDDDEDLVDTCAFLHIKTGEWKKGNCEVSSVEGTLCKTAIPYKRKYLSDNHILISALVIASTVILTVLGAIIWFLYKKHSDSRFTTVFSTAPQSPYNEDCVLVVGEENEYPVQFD", "glycan array binding signal (z-score)": 0.079}
{"BINDER": "Drgal1 (Danio rerio) (protein) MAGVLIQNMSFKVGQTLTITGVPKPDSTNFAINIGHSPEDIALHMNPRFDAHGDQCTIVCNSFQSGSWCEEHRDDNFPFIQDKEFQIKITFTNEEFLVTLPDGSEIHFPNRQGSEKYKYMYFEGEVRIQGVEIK", "glycan array binding signal (z-score)": 0.521}
{"BINDER": "MD-2 (Homo sapiens) (protein) MLPFLFFSTLFSSIFTEAQKQYWVCNSSDASISYTYCDKMQYPISINVNPCIELKGSKGLLHIFYIPRRDLKQLYFNLYITVNTMNLPKRKEVICRGSDDDYSFCRALKGETVNTTISFSFKGIKFSKGKYKCVVEAISGSPEEMLFCLEFVILHQPNSN", "glycan array binding signal (z-score)": -0.321}
{"BINDER": "LEA (Lycopersicon esculentum) (protein) NEVFDVPMNETIGVESINASVGGYPRCGAQGDGGNCPSGMCCSVWGWCGKTYGYCAPQNCQKQCPAPYPEGRCGWQADGKSCPNGKCCSYGGWCGTTSDYCARQNCQKQCILPSPPPPPPPPPGFPRPECGLQKNGERCTKPGECCSIWGLCGATYKYCDPQHCQKQCSAPFPPGRCGWQADGRPCPTGQCCSFSGWCGTTSAHCTYPQCVSQCNDPRFPSSLNNRIQSFML", "glycan array binding signal (z-score)": -0.502}
{"BINDER": "Arath Fbox (Arabidopsis thaliana), NP_178341.1 (protein) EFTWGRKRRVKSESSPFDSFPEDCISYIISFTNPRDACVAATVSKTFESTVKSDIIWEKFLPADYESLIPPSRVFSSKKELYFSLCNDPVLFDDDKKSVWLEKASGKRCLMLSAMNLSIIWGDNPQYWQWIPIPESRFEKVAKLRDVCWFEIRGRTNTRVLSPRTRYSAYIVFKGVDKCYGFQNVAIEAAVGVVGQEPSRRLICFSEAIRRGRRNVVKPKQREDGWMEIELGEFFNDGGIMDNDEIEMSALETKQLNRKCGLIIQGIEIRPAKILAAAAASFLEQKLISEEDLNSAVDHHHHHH", "glycan array binding signal (z-score)": -0.41}
{"BINDER": "CPA (Cicer arietinum) (protein) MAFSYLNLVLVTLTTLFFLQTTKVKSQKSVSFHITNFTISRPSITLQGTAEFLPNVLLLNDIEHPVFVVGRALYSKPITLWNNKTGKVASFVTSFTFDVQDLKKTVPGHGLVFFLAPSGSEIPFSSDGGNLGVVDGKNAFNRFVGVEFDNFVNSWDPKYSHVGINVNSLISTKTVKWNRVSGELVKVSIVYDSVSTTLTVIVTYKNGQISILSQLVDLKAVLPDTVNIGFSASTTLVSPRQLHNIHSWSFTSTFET", "glycan array binding signal (z-score)": -0.503}
{"BINDER": "LecRKVI.2 (protein) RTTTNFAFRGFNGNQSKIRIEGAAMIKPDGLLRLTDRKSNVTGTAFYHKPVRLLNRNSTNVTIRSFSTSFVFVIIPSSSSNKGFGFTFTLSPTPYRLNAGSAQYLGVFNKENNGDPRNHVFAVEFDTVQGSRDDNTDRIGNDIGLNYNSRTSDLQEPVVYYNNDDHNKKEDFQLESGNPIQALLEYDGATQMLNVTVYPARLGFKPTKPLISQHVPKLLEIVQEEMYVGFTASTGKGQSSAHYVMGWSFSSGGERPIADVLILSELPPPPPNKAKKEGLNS", "glycan array binding signal (z-score)": 0.07}
{"BINDER": "Mannose Binding Protein (Lactobacillus plantarum) (protein) AERSEAALTHVDKDNFLKYFSLNGSATYDAKTGIVTITPNQNNQVGNFSLTSKIDMNKSFTLTGQVNLGSNPNGADGIGFAFHSGNTTDVGNAGGNLGIGGLQDAIGFKLDTWFNSYQAPSSDKNGSEISSTNSNGFGWNGDSANAPYGTFVKTSNQEISTANGSKVQRWWAQDTGESQALSKADIDGNFHDFVVNYDGATRTLTVSYTQASGKVLTWKTTVASSYQAMAMVVSASTGAAKNLQQFKLTSFDFQEAATVNVKYVDTTGHQLAQG", "glycan array binding signal (z-score)": -0.324}
